B1: SOAT2 (parent)
chain: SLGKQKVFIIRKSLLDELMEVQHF

- Variants of: B1
- assay info: protein stability index of a GFP-peptide fusion (GPS, HEK-293T) (PSI 1-6); higher = more stable;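 note: lentivirally expressed fusions sorted by FACS into six bins by GFP to DsRed ratio, PSI derived from sequencing read proportions per bin multiplied by bin number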
- run parameters: c terminus: a fixed tail appended
measured endpoint: protein stability index
Provide a numeric answer; units are not to be included.

Record excerpt, results attached:
Incoming: GET /values?readout=protein stability index&item= V7W
Outgoing: 2.34

Incoming: Item under review: F24R . Reported protein stability index?
Outgoing: 2.03

Incoming: What measured protein stability index goes with S13W ?
Outgoing: 1.73

Incoming: Reported protein stability index, variant S1T : ____
Outgoing: 4.03

Incoming: Give its protein stability index value. Item: D16S
Outgoing: 2.09

Incoming: Please give the measured protein stability index for this variant: L15P
Outgoing: 1.56

Continuing:
Incoming: Fill in: protein stability index of L18K is ___
Outgoing: 2.11

Incoming: # get_value(readout='protein stability index', item= Q22R )
Outgoing: 3.46

Incoming: Looking for the measured protein stability index of V7F , can you help?
Outgoing: 2.56

Incoming: Could you tell me which protein stability index is on file for G3W ?
Outgoing: 2.5

Incoming: May I ask what protein stability index has been recorded for I9R ?
Outgoing: 1.8
